target: PRMT5-MEP50 enzyme complex (Homo sapiens, UniProt O14744); assay: In vitro PRMT5 enzyme activity assay (methylation of histone H4 arginine H4R3, ELISA absorbance at 450 nm); conditions: S-adenosylmethionine, histone H4 peptide, 2 hours at room temperature, 8 points 10 μM to 0.128 nM
Sequence (O14744 2-637 limits assumed): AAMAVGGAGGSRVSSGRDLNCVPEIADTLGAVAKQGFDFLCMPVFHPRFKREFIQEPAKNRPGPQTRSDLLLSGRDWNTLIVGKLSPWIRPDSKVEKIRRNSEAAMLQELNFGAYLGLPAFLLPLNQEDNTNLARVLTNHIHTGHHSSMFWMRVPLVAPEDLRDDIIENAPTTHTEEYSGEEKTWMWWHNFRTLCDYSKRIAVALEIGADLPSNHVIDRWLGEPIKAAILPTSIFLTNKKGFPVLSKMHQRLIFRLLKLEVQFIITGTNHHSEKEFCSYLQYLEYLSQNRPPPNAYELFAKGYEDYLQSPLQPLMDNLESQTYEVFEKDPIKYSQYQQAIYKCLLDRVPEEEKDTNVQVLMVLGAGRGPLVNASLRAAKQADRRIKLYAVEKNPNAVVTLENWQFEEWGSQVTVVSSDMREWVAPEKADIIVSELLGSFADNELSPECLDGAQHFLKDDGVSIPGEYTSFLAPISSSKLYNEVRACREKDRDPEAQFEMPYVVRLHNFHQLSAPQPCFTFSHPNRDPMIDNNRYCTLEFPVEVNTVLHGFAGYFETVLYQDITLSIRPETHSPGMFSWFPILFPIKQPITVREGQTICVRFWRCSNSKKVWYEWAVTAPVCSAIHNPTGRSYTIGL
Sequence (Q9BQA1 2-342 partner limits assumed): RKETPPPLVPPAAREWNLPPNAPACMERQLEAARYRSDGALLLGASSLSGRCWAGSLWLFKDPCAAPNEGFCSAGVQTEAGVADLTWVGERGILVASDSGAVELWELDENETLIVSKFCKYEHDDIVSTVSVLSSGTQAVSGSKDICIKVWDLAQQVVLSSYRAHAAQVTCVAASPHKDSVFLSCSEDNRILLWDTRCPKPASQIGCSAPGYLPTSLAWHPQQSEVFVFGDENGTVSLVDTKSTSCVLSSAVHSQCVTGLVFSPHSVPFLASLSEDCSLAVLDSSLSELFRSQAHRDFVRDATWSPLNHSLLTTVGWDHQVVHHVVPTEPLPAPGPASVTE
pIC50: −log10 of the molar value.
measured.property: pIC50

{"molecule": "CC(C)(C)C(=O)Nc1ccc2c(c1)CCN(C[C@H](O)CN1CCc3ccccc3C1)C2=O [Example 19]", "pIC50": "6.00 to 7.00"}

## Input Field: pIC50 (PRMT5-MEP50 enzyme complex (Homo sapiens, UniProt O14744)). Entry: O=C(Nc1ccc2c(c1)CCN(C[C@H](O)CN1CCc3ccccc3C1)C2=O)c1ccncc1 [Example 27]
## Output 6.00 to 7.00

## Input Field: pIC50 (PRMT5-MEP50 enzyme complex (Homo sapiens, UniProt O14744)). Entry: O=C1c2ccc(NCC3CCNCC3)cc2CCN1C[C@H](O)CN1CCc2ccccc2C1 [Example 31]
## Output 7.00 to 9.00

## Input Field: pIC50 (PRMT5-MEP50 enzyme complex (Homo sapiens, UniProt O14744)). Entry: CC(=O)N1CCC(c2ccc3c(c2)CCN(C[C@H](O)CN2CCc4ccccc4C2)C3=O)CC1 [Example 67]
## Output 5.00 to 6.00

## Input Field: pIC50 (PRMT5-MEP50 enzyme complex (Homo sapiens, UniProt O14744)). Entry: CCN(CC)C1CCN(c2ccc3c(c2)C(C)(C)CN(C[C@H](O)CN2CCc4ccccc4C2)C3=O)CC1 [Example 123]
## Output 6.00 to 7.00

----------
biological target: PRMT5-MEP50 enzyme complex (Homo sapiens, UniProt O14744); experiment: In vitro PRMT5 enzyme activity assay (methylation of histone H4 arginine H4R3, ELISA absorbance at 450 nm); conditions: S-adenosylmethionine, histone H4 peptide, 2 hours at room temperature, 8 points 10 μM to 0.128 nM
Here the recorded IC50 is given for each entry.

{"compound": "O=C1c2ccc(N3CCC(O)CC3)cc2CCN1C[C@H](O)CN1CCc2ccccc2C1 [Example 37]", "IC50": "1 to 100 nM"}
{"compound": "O=C1c2ccc(C3=CCNCC3)cc2CCN1C[C@H](O)CN1CCc2ccccc2C1 [Example 57]", "IC50": "1 to 100 nM"}
{"compound": "CC(C)(C)OC(=O)N1CCN(c2ccc3c(c2)CCN(C[C@H](O)CN2CCc4ccccc4C2)C3=O)CC1 [Example 53]", "IC50": "1 to 100 nM"}
{"compound": "CN1CCCC(Oc2ccc3c(c2)CCN(C[C@H](O)CN2CCc4ccccc4C2)C3=O)C1 (stereo partly shown) [Example 139]", "IC50": "1 to 100 nM"}
{"compound": "COCCN1CCN(c2ccc3c(c2)CCN(C[C@H](O)CN2CCc4ccccc4C2)C3=O)CC1 [Example 109]", "IC50": "100 to 1000 nM"}
{"compound": "COC1CCN(c2ccc3c(c2)CCN(C[C@H](O)CN2CCc4ccccc4C2)C3=O)CC1 [Example 48]", "IC50": "1 to 100 nM"}

## Input I'd like to know its IC50. The compound in question is O=C1c2ccc(-c3ccncc3)cc2CCN1C[C@H](O)CN1CCc2ccccc2C1 [Example 8]
## Output 1 to 100 nM
